Molecular target: T1, human MSLN-R3-his protein (human, UniProt Q13421 487-598)
T1 construct: Region 3 of human mesothelin, made in HEK293E cells, His-tagged; also called human MSLN-R3 protein; hMSLN-R3-his; not shown: His tag
T1 sequence (Q13421 495-606): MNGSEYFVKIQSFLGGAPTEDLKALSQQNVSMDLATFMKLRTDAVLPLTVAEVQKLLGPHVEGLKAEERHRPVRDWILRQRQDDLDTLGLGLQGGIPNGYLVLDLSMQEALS
Assay: ELISA on coated MSLN-R3; antibody 100 nM
value_type: OD450 (OD450)
Your answer is read as OD450, so omit the unit and give the number.

| binder | output_unit | OD450 |
| --- | --- | --- |
| S009-F8-12.13 (antibody, human IgG1, kappa, V domains shown) VH: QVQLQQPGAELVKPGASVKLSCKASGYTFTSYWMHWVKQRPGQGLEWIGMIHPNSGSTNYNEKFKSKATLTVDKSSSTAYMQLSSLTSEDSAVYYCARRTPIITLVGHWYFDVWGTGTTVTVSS VL: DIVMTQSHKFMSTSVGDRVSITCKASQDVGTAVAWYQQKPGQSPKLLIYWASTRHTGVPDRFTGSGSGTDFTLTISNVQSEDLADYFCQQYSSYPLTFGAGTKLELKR | OD450 | 0.2 |
| S009-F8-13.8 (antibody, human IgG1, kappa, V domains shown) VH: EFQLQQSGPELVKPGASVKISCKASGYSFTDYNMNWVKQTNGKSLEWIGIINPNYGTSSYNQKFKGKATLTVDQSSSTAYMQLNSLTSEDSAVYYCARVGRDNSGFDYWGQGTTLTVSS VL: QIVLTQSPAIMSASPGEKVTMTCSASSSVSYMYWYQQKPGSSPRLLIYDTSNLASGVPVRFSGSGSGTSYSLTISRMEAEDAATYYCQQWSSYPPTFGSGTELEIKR | OD450 | 0.06 |

# evaluate next
Q: Which OD450 reading was recorded for the binder Tab106 (YP218, hIgG1) (antibody, V domains shown, also called YP218 human IgG1 antibody) VH: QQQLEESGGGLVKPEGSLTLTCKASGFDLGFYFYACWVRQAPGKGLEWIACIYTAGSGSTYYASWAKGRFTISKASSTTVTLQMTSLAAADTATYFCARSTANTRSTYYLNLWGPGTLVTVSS VL: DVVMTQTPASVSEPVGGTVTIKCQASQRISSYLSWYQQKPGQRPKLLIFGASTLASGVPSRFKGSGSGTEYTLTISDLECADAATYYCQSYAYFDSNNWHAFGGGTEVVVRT ?
A: 2.28
